- System: glycogen synthase kinase-3 (GSK3A per assay name; protocol says GSK3B)
- Experiment description: GSK3 binders on small-molecule microarrays, primary screen, biochemical, small-molecule microarray, 635 nm fluorescence, GSK3A (AID 1103); note: the record names both GSK3A and GSK3B
- Run conditions: small-molecule microarray binding, fluorescence 635 nm; higher = more signal
Quantity kind: composite z-score
Please reply with the value in numeric form only.

Supply composite z-score measured with glycogen synthase kinase-3 (GSK3A per assay name; protocol says GSK3B) for COCCOC(=O)N1C(=O)[C@@]2(c3cc(C#CCNC(N)=O)ccc31)[C@H](c1ccccc1OCCO)N1[C@H](c3ccccc3)[C@H](c3ccccc3)OC(=O)[C@H]1[C@@H]2C(=O)NC[C@H](O)c1ccccc1 .
0.618

Provide composite z-score, tested on glycogen synthase kinase-3 (GSK3A per assay name; protocol says GSK3B), for C=CC[C@]1(C(=O)O)N=C(c2ccc(OCCCO)cc2)O[C@H]1c1ccccc1 .
-0.517

Quote composite z-score with test system glycogen synthase kinase-3 (GSK3A per assay name; protocol says GSK3B) for O=C(CS)NCCCCCCNC(=O)[C@@H]1C[C@@H]2C(=O)N[C@@H](Cc3ccccc3)C(=O)N2[C@@H]1c1ccc(O)cc1
1.32

Return reported composite z-score for target or system glycogen synthase kinase-3 (GSK3A per assay name; protocol says GSK3B), item CC(C)CNC(=O)[C@@]1(C)c2ccccc2C(=O)N(Cc2ccc(OC(F)(F)F)cc2)[C@H]1c1ccc(CO)cc1 .
-0.694

Output reported composite z-score of the compound CCC(=O)[C@]12O[C@@]3([C@@H]4C(=O)OCC[C@@H]41)N(Cc1ccccc1)C(C)=C(C(=O)OC)[C@@H](c1ccccc1)N3C2=O on glycogen synthase kinase-3 (GSK3A per assay name; protocol says GSK3B).
-0.588

Give the observed composite z-score of Cc1ccc(N2C(=O)c3ccccc3[C@@H](C(=O)NCc3ccccc3)[C@@H]2c2ccc(CO)cc2)nc1 for glycogen synthase kinase-3 (GSK3A per assay name; protocol says GSK3B).
-1.13

GET composite z-score where system = glycogen synthase kinase-3 (GSK3A per assay name; protocol says GSK3B) and item = CN1C2C=C(c3ccc(CO)cc3)C(C3C(=O)N(C(N)=O)C(=O)C32)C1c1cccs1 (configuration not stated)
-0.148
